Data origin: patent US20170260282A1

- assay.system: T1, Human GITR (cell surface) (human, UniProt Q9Y5U5 26-241)
- T1 sequence: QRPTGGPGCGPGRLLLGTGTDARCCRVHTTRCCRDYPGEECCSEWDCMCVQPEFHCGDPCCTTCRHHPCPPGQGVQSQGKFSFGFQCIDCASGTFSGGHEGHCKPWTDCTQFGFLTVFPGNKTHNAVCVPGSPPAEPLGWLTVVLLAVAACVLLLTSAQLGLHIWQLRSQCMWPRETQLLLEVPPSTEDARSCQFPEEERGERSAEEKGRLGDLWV
- test.method.notes: cell-based or functional assay
readout.type: ADCC EC50, HEK293-hGITR target cells, NK-92 FcγRIIIa 176V/V effector cells (ng/mL)
Number in ng/mL, nothing else.

Below, 3 binders whose answers are already recorded.
[
  {
    "binder": "TRGB23 (antibody, human IgG1, kappa, V domains shown) VH: QVQLVQSGAEVKKPGSSVKVSCKASGGTFSSYAISWVRQAPGQGLEWMGGIIPIFGTANYAQKFQGRVTITADESTSTAYMELSSLRSEDTAVYYCARHGNWLHFNLDYWGQGTLVTVSS VL: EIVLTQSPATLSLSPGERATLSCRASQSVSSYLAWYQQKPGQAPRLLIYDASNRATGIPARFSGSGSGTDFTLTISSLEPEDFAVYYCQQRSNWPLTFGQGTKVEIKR",
    "measured.value": 4.4
  },
  {
    "binder": "TRGB34 (antibody, human IgG1, kappa, V domains shown, human IgG1/kappa) VH: EVQLVQSGAEVKKPGESLKISCKGSGYSFTSYWIGWVRQMPGKGLEWMGIIYPGDSDTRYSPSFQGQVTISADKSISTAYLQWSSLKASDTAMYYCARDYGWHDFDYWGQGTLVTVSS VL: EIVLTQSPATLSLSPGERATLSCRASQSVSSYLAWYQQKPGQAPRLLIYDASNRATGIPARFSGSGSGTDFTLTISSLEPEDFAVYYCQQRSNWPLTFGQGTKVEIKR",
    "measured.value": 5.8
  },
  {
    "binder": "TRGB159 (antibody, human IgG1, kappa, V domains shown, human IgG1/kappa) VH: QVQLVQSGAEVKKPGSSVKVSCKASGGTFSSYAISWVRQAPGQGLEWMGGIIPIFGTANYAQKFQGRVTITADESTSTAYMELSSLRSEDTAVYYCARHGRNSGRLDYWGQGTLVTVSS VL: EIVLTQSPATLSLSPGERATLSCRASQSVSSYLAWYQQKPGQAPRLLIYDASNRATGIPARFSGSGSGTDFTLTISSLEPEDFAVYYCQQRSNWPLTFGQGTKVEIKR",
    "measured.value": 2.9
  }
]

The recorded ADCC EC50, HEK293-hGITR target cells, NK-92 FcγRIIIa 176V/V effector cells for entry TRGB153 (antibody, human IgG1, kappa, V domains shown, human IgG1/kappa) VH: QVQLVQSGAEVKKPGSSVKVSCKASGGTFSSYAISWVRQAPGQGLEWMGGIIPIFGTANYAQKFQGRVTITADESTSTAYMELSSLRSEDTAVYYCARHAWLGHLDYWGQGTLVTVSS VL: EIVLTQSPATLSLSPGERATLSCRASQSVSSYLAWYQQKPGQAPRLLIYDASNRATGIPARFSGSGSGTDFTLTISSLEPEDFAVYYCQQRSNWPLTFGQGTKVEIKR equals 1.9
